Known pKi of a selection of compounds
testedTarget: human CB2R (Homo sapiens)
Construct: host or cells: CHO-K1 (CHOK1hCB2_bgal)
Sequence (P34972 whole entry): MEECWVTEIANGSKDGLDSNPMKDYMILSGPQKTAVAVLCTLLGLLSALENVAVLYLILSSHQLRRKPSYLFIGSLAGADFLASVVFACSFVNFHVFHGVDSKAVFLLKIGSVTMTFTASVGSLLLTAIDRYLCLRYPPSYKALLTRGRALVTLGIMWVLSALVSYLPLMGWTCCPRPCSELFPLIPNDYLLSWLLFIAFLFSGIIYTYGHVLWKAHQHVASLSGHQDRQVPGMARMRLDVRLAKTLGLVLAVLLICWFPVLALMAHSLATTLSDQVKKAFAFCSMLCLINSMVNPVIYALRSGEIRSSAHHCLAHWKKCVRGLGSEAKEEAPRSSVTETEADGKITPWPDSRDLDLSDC
protocolSummary: [3H]CP55,940 displacement assay on CHO membranes, CB2R
Type: binding
conditionContext: hCB2R pKi ± SEM, [3H]CP55,940 displacement, CHO membranes
Keep it numeric: pKi is minus log10 of the concentration in mol/L.

| compound | experimentalValue |
| --- | --- |
| CCOC(=O)C(CC)(CC)NC(=O)c1nn(Cc2cccc(F)c2)c2ccccc12 [Compound 19] | 9.20 |
| CCOC(=O)C(CC)(CC)NC(=O)c1cnc(OCCOC)c(-c2ccc(Cl)cc2)n1 [Compound 18] | 7.95 |
| CCOC(=O)C(CC)(CC)NC(=O)c1nn(-c2ccc(Cl)cc2Cl)c2c1CCCc1cc(Cl)ccc1-2 [Compound 16] | 8.40 |
| CCOC(=O)C(CC)(CC)NC(=O)c1cnc(OCC2CC2)c(-c2ccc(F)cc2)c1 [Compound 17] | 8.19 |

The record that follows has no pKi shown yet.
Input line: // Input: CCOC(=O)C(CC)(CC)NC(=O)c1nn(-c2ccc(Cl)cc2Cl)c(-c2ccc(Cl)cc2)c1C [Compound 15] . Output its pKi only.
Output line: 8.07

###

protocolSummary: Photophysical characterization in PBS
Assay type: physicochemical
conditionContext: PBS pH 7.4
measurementName: QY (quantum yield) (%)
Number in %, nothing else.

| smilesRepresentation | unitsSymbol | QY (quantum yield) |
| --- | --- | --- |
| CCC(CC)(NC(=O)c1nn(-c2ccc(Cl)cc2Cl)c2c1CCCc1cc(Cl)ccc1-2)C(=O)NCCOCCOCCNC(=O)c1ccc2c(c1)C(=O)OC21c2ccc(N(C)C)cc2Oc2cc(N(C)C)ccc21 | % | 11.10 |
| CCC(CC)(NC(=O)c1nn(-c2ccc(Cl)cc2Cl)c(-c2ccc(Cl)cc2)c1C)C(=O)NCCOCCOCCNc1ccc([N+](=O)[O-])c2nonc12 | % | 0.80 |
| CCC(CC)(NC(=O)c1cnc(OCC2CC2)c(-c2ccc(F)cc2)c1)C(=O)NCCOCCOCCNC(=O)c1ccc2c(c1)C(=O)OC21c2ccc(N(C)C)cc2Oc2cc(N(C)C)ccc21 | % | 47.40 |
| CCC(CC)(NC(=O)c1cc(-c2cc(C(F)(F)F)ccc2C(F)(F)F)n(C[C@H]2CCCO2)c1C)C(=O)NCCOCCOCCNc1ccc([N+](=O)[O-])c2nonc12 | % | 1.3 |
| CCC(CC)(NC(=O)c1cnc(OCCOC)c(-c2ccc(Cl)cc2)n1)C(=O)NCCOCCOCCNC(=O)c1ccc2c(c1)C(=O)OC21c2ccc(N(C)C)cc2Oc2cc(N(C)C)ccc21 | % | 56.20 |

Input line: // Input: "CCC(CC)(NC(=O)c1nn(-c2ccc(Cl)cc2Cl)c2c1CCCc1cc(Cl)ccc1-2)C(=O)NCCOCCOCCNc1ccc([N+](=O)[O-])c2nonc12" . Output its QY (quantum yield) only.
Output line: 1.30

Input line: // Input: "CCC(CC)(NC(=O)c1cc(-c2cc(C(F)(F)F)ccc2C(F)(F)F)n(C[C@H]2CCCO2)c1C)C(=O)NCCOCCOCCNc1ccc([N+](=O)[O-])c2nsnc12" . Output its QY (quantum yield) only.
Output line: 0.30

Input line: // Input: "CCC(CC)(NC(=O)c1nn(-c2ccc(Cl)cc2Cl)c(-c2ccc(Cl)cc2)c1C)C(=O)NCCOCCOCCNC(=O)c1ccc2c(c1)C(=O)OC21c2ccc(N(C)C)cc2Oc2cc(N(C)C)ccc21" . Output its QY (quantum yield) only.
Output line: 17.50
